test: yeast display, Sf9 membrane polyspecificity reagent, FACS + sequencing; frameworks hold sequencing errors

[
  {
    "SEQUENCE_CODE": "QVQLVDSGGGLVQAGGSLRLSCAASGSTFNPYAMGWYRQAPGKERELVAGISWSGGSTYYADSVKGRFSISRDNAKNTVYLQMNSLKPEDTAVYYCAVVVYWSVIYDFWGQGTQVTVST",
    "polyreactivity (PSR sort gate)": "low polyreactivity"
  },
  {
    "SEQUENCE_CODE": "QVQLVESGGGLVQAGGSLRLSCAASGRTFYSYAMGWYRQAPGKERELVATITNGDTTNYADSVKGRFTISRDNAKNTVYLQMNSLKPEDTAVYYCAKDISPGYDEYDYWGQGTQVTVSS",
    "polyreactivity (PSR sort gate)": "low polyreactivity"
  }
]

###

assay: yeast display, Sf9 membrane polyspecificity reagent, FACS + sequencing; frameworks hold sequencing errors

[
  {
    "SEQUENCE_CODE": "QVQLVESGGGLVQEGGSLRLSCAASGSTFHGYAMGWYRQAPGKERELVASISWSGGRTYYADSVKGRFTISRDNAKNTVYLQMNSMKPEDTAVYYCAAETGGLGGDYLGQGTQVTVSS",
    "polyreactivity (PSR sort gate)": "low polyreactivity"
  },
  {
    "SEQUENCE_CODE": "QVQHVESGGGLVQAGGSLRLSCAASGSIFLPYAMGWYRQAPGKQRELVAAISDRGSTYYADSVKGRFTISRDNAQNTVYLHMNSVKAEDTAVYYCAKVYLLFVGALQFDYWGQGTQVTVSS",
    "polyreactivity (PSR sort gate)": "low polyreactivity"
  }
]

###

experiment: yeast display, Sf9 membrane polyspecificity reagent, FACS + sequencing; frameworks hold sequencing errors

[
  {
    "SEQUENCE_CODE": "QVQLVESGGGLVQAGGSLRLSCAASGFIFSNNAMGWYRQAPGKERELVAVINGGGSTYYADSVKGRFTISRDNAKNTVYLQMNSLKPEDTAVYYCARKSWPKERRVDPGYDYWGQGTQVTVSS",
    "polyreactivity (PSR sort gate)": "low polyreactivity"
  },
  {
    "SEQUENCE_CODE": "QVQLVESGGGLVQAGGSLRLSCAASGRIFYRYAMGWYRQAPGKERELVAAIRYSGGRTYYADSVKGRFTISRDNAKNTVYLQMNSLKPEDTAVYYCAARGWYKSDYWGQGTQVTVSS",
    "polyreactivity (PSR sort gate)": "low polyreactivity"
  },
  {
    "SEQUENCE_CODE": "QVELVESGAGLVQAGGSLRLSCAASGRIFRYYVKGWYRQAPGKESELVAAISSGGSTNYADSVKGRFTISRDNAKNTVYLQMNSLKPEDTAVYYCNRDIGGSSVLDDYWGQGTQVTVSS",
    "polyreactivity (PSR sort gate)": "low polyreactivity"
  }
]

###

assay: yeast display, Sf9 membrane polyspecificity reagent, FACS + sequencing; frameworks hold sequencing errors

[
  {
    "SEQUENCE_CODE": "QVQLVESGGGLVQAGGSLRLSCAASGSIFTLYARGWYREAPGKERELVAAITWTGGSTYYADSVKGRFTISRDNAKNTVYLQMNSLKPEDTAVYYCATDAYWQSNGAFYYVARHGGYWGQGTQVTVSS",
    "polyreactivity (PSR sort gate)": "low polyreactivity"
  },
  {
    "SEQUENCE_CODE": "QVQLVESGGGLVQAGGSLRLSCAASGTMGWYRQAPGKERELVAAISSSDRTSYADSVKGRFTISRDNAKNTVYLQMNSLKPEDTAVYYCNASTVFAWRTTTLKLFYTAHDYWGQGTQVTVSS",
    "polyreactivity (PSR sort gate)": "low polyreactivity"
  },
  {
    "SEQUENCE_CODE": "QVQLVESGGGLVQAGGSLRLSCAASGSIFARYVMGWYRQAPGKERELVAAISRGGRTKYADSVKGRFTISRDNAKNTVYLQMNSLKPEDTAVYYCAASGSQPDDYWGQGTQVTVSS",
    "polyreactivity (PSR sort gate)": "high polyreactivity"
  },
  {
    "SEQUENCE_CODE": "QVQLVESGGGLVQAGGSLRLSCAASGSTFARNAMGWYRQAPGKERELVAAISSGGTTNYADSVKGRFTISRDNAKNTVYLQMNSLKPEDTAVYYCNAGFRNVLTSGYLYDYWGQGTQVTVSS",
    "polyreactivity (PSR sort gate)": "low polyreactivity"
  },
  {
    "SEQUENCE_CODE": "QVQLVESGGGLVQAGGSLRLSCAASGFIFPGYAMGWYRQAPGKERELVAAITRSGGSTYYADSVKGRFTISRDNAKNTVYLQMNSLKPEDTAVYYCAAYVSGYRWGYDYWGQGTQVTVSS",
    "polyreactivity (PSR sort gate)": "high polyreactivity"
  },
  {
    "SEQUENCE_CODE": "QVQLVESGGGLVQAGGSLRLSCAASGFIVRNYAMGWYSQAPGKERELVASISRGTSTNYADSVKGRFTISRDNAKNTVYLQMNSLKPEDTAVYYCNKRFYYHPFDYWGQGTQVTVSS",
    "polyreactivity (PSR sort gate)": "high polyreactivity"
  },
  {
    "SEQUENCE_CODE": "QVQLVESGGGLVQAGGSLRLSCAASGRTFGYYAMGWYRQAPGKEREFVAAISSSGGSTYYADSVKGRFTISRDNAKNTVYLQMNSLKPEDTAVYYCAARRNYFYGYYYWGQGTQVTVSS",
    "polyreactivity (PSR sort gate)": "high polyreactivity"
  },
  {
    "SEQUENCE_CODE": "QDQLVESGGGLVQAGGSHRLSCAASGLTLTDNALGWYRQAPGKERELVAAISQSGGRTSYADSVKGRFTISRDNAKNTVYLQMNSLKPEDTAVYYCNTRRGSVAKYGYWGQGTQVTVSS",
    "polyreactivity (PSR sort gate)": "high polyreactivity"
  },
  {
    "SEQUENCE_CODE": "QVQLVESGGGLVQAGGSLRLSCAASGFIFYGNTMGWYRQAPGKERELVAAISGSTGGTYYADSVKGRFTISRDNAKNTVYLQMNSLKPEDTAVYYCAAVVPWYASYSRYYYWGQGTQVTVSS",
    "polyreactivity (PSR sort gate)": "high polyreactivity"
  },
  {
    "SEQUENCE_CODE": "QVQLVESGGGLVQAGGSLRLSCAASGRIFVRNAMGWYRQAPGKERELVADITNGGSTNYADSVKGRFTITRDNAKNTVYLQMNSLKPEDTAVYYCAADTLGVYDGDYWGQVTQVTVSS",
    "polyreactivity (PSR sort gate)": "low polyreactivity"
  },
  {
    "SEQUENCE_CODE": "QVQLVESGGGLVQAGGSLRLSCAASGFIIYGYVMGWYRQAPGKERELVAAINSSSGRTYYADSVKGRFTISRDNAKNTVYLQMKSLKPEDTAVYYCAAYYYGSYDGTPYDYWGQGTQVTVSS",
    "polyreactivity (PSR sort gate)": "low polyreactivity"
  }
]
